What normalized growth was measured for each of the following?
protocol: chemical genetic growth profiling, strain panel (AID 1159580);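 also: tested at 20 µM; growth read once vehicle control cultures reached saturation at 30 °C; 1 = growth at the plate median or of vehicle wells; lower values mean less growth of the strain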
condition_description: S. cerevisiae deletion strains, growth OD, locus YMR205C, strain PFK2, stronger effect = lower value
Out of some 5,500 compounds screened, about 2,000 (36%) were called active. Inconclusive results (about 18%) are left out. The list shows a part of the results.
One number for each entry.

Example entries begin here.
| compound | reported |
| --- | --- |
| CC(C)(C)NCC(O)COc1cccc2c1C[C@H](O)[C@H](O)C2 (some centres not stated) | 1.02 |
| C[C@H]1O[C@@H](O[C@H]2[C@@H](O)C[C@H](O[C@H]3[C@@H](O)C[C@H](O[C@H]4CC[C@]5(C)C6CC[C@]7(C)[C@@H](C8=CC(=O)OC8)CC[C@]7(O)C6CC[C@@H]5C4)O[C@@H]3C)O[C@@H]2C)C[C@H](O)[C@@H]1O (some centres not stated) | 0.924 |
| C[C@H]1[C@H](C)CC[C@]2(C(=O)O)CC[C@]3(C)C(=CCC4[C@@]5(C)C[C@@H](O)[C@H](O)[C@@](C)(CO)C5[C@H](O)C[C@]43C)[C@H]12 (some centres not stated) | 0.909 |
| CCCc1nc(C)c2c(=O)[nH]c(-c3cc(S(=O)(=O)N4CCN(CC)CC4)ccc3OCC)nn12 | 0.944 |
| CCCc1nn(C)c2c(=O)[nH]c(-c3cc(S(=O)(=O)N4CCN(C)CC4)ccc3OCC)nc12 | 0.981 |

Return reported normalized growth values for all items listed beneath this line.
1. CC(C)c1cccc(C(C)C)c1O
2. CC(=O)O[C@@H]1CC2C(C)(CC[C@H](O)C2(C)C)C2CC[C@]3(C)C(=CC(=O)O[C@H]3c3ccoc3)C21C (some centres not stated)
3. COC(=O)N/N=C\c1c[n+]([O-])c2ccccc2[n+]1[O-]
4. C[C@@H]1O[C@@H](O[C@H]2CC[C@]3(C=O)C4CC[C@]5(C)[C@@H](C6=CC(=O)OC6)CC[C@]5(O)C4CC[C@]3(O)C2)[C@H](O)[C@H](O)[C@H]1O (some centres not stated)
5. COc1cc(C(=O)N2CCOCC2)cc(OC)c1OC
6. NS(=O)(=O)c1cc2c(cc1C(F)(F)F)NC(Cc1ccccc1)NS2(=O)=O (configuration not stated)

1: 0.941; 2: 0.995; 3: 0.988; 4: 0.954; 5: 0.982; 6: 0.978

====

protocol: chemical genetic growth profiling, strain panel (AID 1159580);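 also: tested at 20 µM; growth read once vehicle control cultures reached saturation at 30 °C; 1 = growth at the plate median or of vehicle wells; lower values mean less growth of the strain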
condition_description: S. cerevisiae deletion strains, growth OD, locus YOR080W, strain dia2, stronger effect = lower value
The whole screen tested about 5,500 compounds, of which about 2,000 (36%) were called active. Another 18% or so got no clear call; they are omitted. Some of the results follow.
reported_endpoint: normalized growth
One number for each entry.

| compound | normalized growth |
| --- | --- |
| Oc1ccc([C@H]2Oc3cc(O)cc(O)c3C[C@H]2O)cc1 | 0.974 |
| CC(C)=CC1C(CO)C1(C)C (stereo not given) | 1.02 |
| CC(=O)OC1CC[C@@]2(C)C(CCC3C2CC[C@]2(C)C(C4=CC(=O)OC4)C(OC(C)=O)CC32O)C1 (stereo not given in full) | 0.973 |
| C[C@]12CCC3C(CC[C@]4(O)C[C@@H](O)CC[C@]34C=O)[C@@]1(O)CCC2C1=CC(=O)OC1 (stereo not given in full) | 0.988 |
| COc1cc(-c2cc(=O)c3c(O)c(OC)c(OC)c(OC)c3o2)cc(OC)c1OC | 1.01 |
| CC(=O)O[C@@H]1c2c(ccc3ccc(=O)oc23)OC(C)(C)[C@@H]1OC(=O)CC(C)C | 1.02 |
| C[C@@H]1CC[C@@]23CCC4(C)[C@@](C=CC5[C@@]6(C)CCC(=O)C(C)(C)C6CC[C@]54C)(OC2=O)C3[C@H]1C (stereo not given in full) | 0.996 |
| CC(=O)Oc1ccccc1C(=O)Oc1ccccc1C(=O)O | 1 |

Return reported normalized growth values for all items listed beneath this line.
1. O=C(Oc1cccc2cccnc12)c1ccccc1
2. COc1ccc(-c2cc(=O)c3c(OC)c(OC)c(OC)c(OC)c3o2)cc1OC
3. NCCCC(O)(P(=O)(O)O)P(=O)(O)O
4. COC1CC(OC2CCC3(C)C(CCC4C3CCC3(C)C(C5=CC(=O)OC5)C(OC(C)=O)CC43O)C2)OC(C)C1O (stereo not given)

0.973
0.989
0.979
1.02

Return reported normalized growth values for all items listed beneath this line.
1. CCC(=O)O[C@]1(C(=O)CCl)[C@@H](C)CC2C3CCC4=CC(=O)C=C[C@]4(C)[C@@]3(F)[C@@H](O)C[C@@]21C (stereo not given in full)
2. COc1ccc(-c2cc(=O)c3c(O)c(OC)c(OC)c(OC)c3o2)cc1OC
3. COC(=O)[C@H]1[C@H]2C[C@H]3c4[nH]c5cc(OC)ccc5c4CCN3C[C@H]2C[C@@H](OC(=O)c2cc(OC)c(OC)c(OC)c2)[C@@H]1OC
4. O=C(O)c1ccccc1O

[1.03, 0.999, 1.01, 0.983]

====

protocol: chemical genetic growth profiling, strain panel (AID 1159580);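 also: tested at 20 µM; growth read once vehicle control cultures reached saturation at 30 °C; 1 = growth at the plate median or of vehicle wells; lower values mean less growth of the strain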
condition_description: S. cerevisiae deletion strains, growth OD, locus YBR023C, strain chs3, stronger effect = lower value
The campaign covered roughly 5,500 compounds. About 2,000 (36%) were called active. Not shown: some 18% with an inconclusive outcome. Some of the results follow.
reported_endpoint: normalized growth
Give bare numbers.

Example entries begin here.
| compound | normalized growth |
| --- | --- |
| C[C@H]1[C@H](C)CC[C@]2(C(=O)O)CC[C@]3(C)C(=CCC4[C@@]5(C)C[C@@H](O)[C@H](O)[C@@](C)(CO)C5CC[C@]43C)[C@H]12 (some centres undefined) | 0.995 |
| COc1cccc2c1CCC1=CC(=O)CC[C@@]12C | 1.01 |
| CC1(C)C(O)CC(=O)C2(C)C1CC(O)C1(C)C2CCC2(C)C(c3ccoc3)OC(=O)C3OC321 (centres undefined) | 0.99 |
| O=C(CCCN1CCC2(CC1)C(=O)NCN2c1ccccc1)c1ccc(F)cc1 | 0.995 |
| O=C(O)C1=CC(=C(c2ccc(O)c(C(=O)O)c2)c2ccc(O)c(C(=O)O)c2)C=CC1=O | 0.976 |

Return reported normalized growth values for all items listed beneath this line.
1. CCC(=O)OCC(=O)[C@@]1(OC(=O)CC)[C@@H](C)CC2C3CCC4=CC(=O)C=C[C@]4(C)C3(F)[C@@H](O)C[C@@]21C (some centres undefined)
2. CCCCC(=O)O[C@]1(C(=O)CO)[C@@H](C)CC2C3CCC4=CC(=O)C=C[C@]4(C)[C@@]3(F)C(O)C[C@@]21C (some centres undefined)
3. CC(C)c1cccc(O)c(=O)c1
4. CSc1nc(NC(C)C)nc(NC(C)C)n1
5. CCC(=O)OCC(=O)C1(OC(=O)CC)C(C)CC2C3C(Cl)CC4=CC(=O)C=CC4(C)C3C(O)CC21C (centres undefined)
6. CC12CCC(=O)C=C1CCc1ccccc12 (centres undefined)
7. Cc1c(OCC(F)(F)F)ccnc1CS(=O)c1nc2ccccc2[nH]1 (centres undefined)
8. NC(=O)c1cc([N+](=O)[O-])cc([N+](=O)[O-])c1

[1.01, 0.98, 0.0691, 0.957, 1.02, 0.979, 1.02, 1.02]

====

protocol: chemical genetic growth profiling, strain panel (AID 1159580);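 also: tested at 20 µM; growth read once vehicle control cultures reached saturation at 30 °C; 1 = growth at the plate median or of vehicle wells; lower values mean less growth of the strain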
condition_description: S. cerevisiae deletion strains, growth OD, locus YNL307C, strain MCK1
Among all 5,500 compounds or so, about 2,000 (36%) were called active. Another 18% or so got no clear call; they are omitted. Cut-off read from the data, not from the text of the source: active = normalized growth mostly below about 0.91 (no sharp cut-off); inconclusive = no clear call, values can overlap the other calls; inactive = mostly above about 0.92. The list shows a part of the results.
Hello, when you answer, please use one of the following outcomes: active, inactive

| molecule | cat |
| --- | --- |
| O=C(CCCN1CCC2(CC1)C(=O)NCN2c1ccccc1)c1ccc(F)cc1 | inactive |
| C[C@]12CCC(=O)C=C1CCc1ccc(O)cc12 | inactive |

Any idea what this test logged for C[C@@H]1CCC2[C@](C)(CO)[C@@H](O)CC[C@]2(C)[C@@]12CC[C@@](CO)(CCO)O2 (stereo partly drawn) ? inactive

Any idea what this test logged for CC1(C)O[C@@H]2CC3C4C[C@H](F)C5=CC(=O)CC[C@]5(C)C4[C@@H](O)C[C@]3(C)[C@]2(C(=O)CO)O1 (stereo partly drawn) ? inactive

Any idea what this test logged for CC1(C)C(O)CC(=O)C2(C)C1CC(O)C1(C)C2CCC2(C)C(c3ccoc3)OC(=O)C3OC321 (stereo not drawn) ? inactive

Any idea what this test logged for `NC[C@H]1O[C@H](O[C@H]2[C@H](O)[C@@H](O[C@H]3O[C@H](CO)[C@@H](O)[C@H](N)[C@H]3O)[C@H](N)C[C@@H]2N)[C@H](N)[C@@H](O)[C@@H]1O` ? inactive

Any idea what this test logged for `COc1ccccc1N1CCN(CCCNc2cc(=O)n(C)c(=O)n2C)CC1` ? inactive

Any idea what this test logged for `Cc1cc(N)c2ccccc2[n+]1CCCCCCCCCC[n+]1c(C)cc(N)c2ccccc21` ? active
